# testTarget: α2-Adrnoceptor (Homo sapiens)
# Construct: from tissue; host or cells: human platelet membranes
# Sequence (P08913 1-465): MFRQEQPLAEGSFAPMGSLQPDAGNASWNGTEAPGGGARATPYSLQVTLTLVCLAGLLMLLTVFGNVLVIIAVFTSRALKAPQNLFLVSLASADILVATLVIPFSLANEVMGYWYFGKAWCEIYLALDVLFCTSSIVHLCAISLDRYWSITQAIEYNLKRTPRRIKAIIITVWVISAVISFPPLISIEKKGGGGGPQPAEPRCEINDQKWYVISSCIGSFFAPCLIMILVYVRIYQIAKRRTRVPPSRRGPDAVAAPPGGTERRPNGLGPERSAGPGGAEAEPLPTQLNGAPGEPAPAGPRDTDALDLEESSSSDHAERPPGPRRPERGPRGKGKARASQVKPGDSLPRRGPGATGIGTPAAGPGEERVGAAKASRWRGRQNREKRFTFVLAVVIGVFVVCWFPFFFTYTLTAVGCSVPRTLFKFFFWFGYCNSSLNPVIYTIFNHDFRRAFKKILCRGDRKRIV
# protocol: α2-Adrenoceptor binding ([3H] Rauwolscine, human platelet membranes)
Counter-ions that a name gives are not always drawn.
For each entry below, report its Ki value.
Lab note: write values as number then unit, every time.

Q. Record request: Ki value, item C[C@H]1c2ccccc2C[C@@H]1NC1=NCCO1 (relative stereo)
A. 2 nM

Q. Subsequent entry: c1ccc2c(c1)CC(NC1=NCCN1)C2 [Example 2, hydrochloride hemihydrate]
A. 98 nM

Q. Subsequent entry: C[C@H]1c2ccccc2C[C@H]1NC1=NCCO1 (relative stereo)
A. 2 nM

Q. Subsequent entry: c1ccc2c(c1)CC(NC1=NCCO1)C2
A. 1 nM

Q. Subsequent entry: Clc1ccc2c(c1)CC(NC1=NCCO1)C2 (stereo not shown)
A. 25 nM

Q. Subsequent entry: Clc1cccc2c1CC(NC1=NCCO1)C2 (stereo not shown)
A. 1 nM

Q. Subsequent entry: Cc1ccc2c(c1)CC(NC1=NCCO1)C2 (stereo not shown)
A. 25 nM

* * *

# testTarget: α2-Adrnoceptor (Homo sapiens, UniProt P08913)
# Construct: from tissue; host or cells: human platelet membranes
# protocol: α2-Adrenoceptor binding ([3H] Rauwolscine, human platelet membranes)
# assayContext: [3H] Rauwolscine (0.5-1.0 nM), human platelet membranes, 30 minutes at 30° C.; Cheng-Prussoff equation; read-out: Binding Affinity Ki
assayReadout: pKi
Keep in mind that pKi stands for -log10 of concentration in molar terms.

Q. Enter reported pKi observed with α2-Adrnoceptor (Homo sapiens, UniProt P08913) for c1ccc2c(c1)CC(NC1=NCCS1)C2
A. 6.72
